test system: Pseudocercospora fijiensis; experiment: Antifungal activity against Pseudocercospora fijiensis assessed as inhibition of mycelial growth under 12 hr photoperiod measured after 8 days; assay type: functional, organism-based
Activity calls are given as the source filed them. No cut-off for these calls is given here.
Allowed answers: true (1) = active, false (0) = inactive

These recorded examples may help you get a feel for the data.
| molecular string | system tested | class assignment |
| --- | --- | --- |
| O=C1C=Cc2c(O)ccc3cccc1c23 | Pseudocercospora fijiensis | false (0) |
| COc1ccc2c3c(cccc13)C(=O)C=C2 | Pseudocercospora fijiensis | false (0) |

INPUT: Recorded test call requested for `COC1=CC(=O)c2cccc3cccc1c23`
OUTPUT: false (0)

INPUT: How did this test come out for `O=C1C([N+](=O)[O-])=Cc2cccc3cccc1c23` ?
OUTPUT: true (1)

INPUT: Please indicate how the test categorized `COc1ccc2cccc3c2c1C=C([N+](=O)[O-])C3=O` .
OUTPUT: true (1)

INPUT: Returns: the outcome recorded for `O=C1C=Cc2ccc(O)c3cccc1c23` in this assay.
OUTPUT: false (0)

INPUT: I'd appreciate the recorded outcome for `O=C1C=Cc2cccc3cccc1c23` from this test.
OUTPUT: true (1)
